Test: S. pombe growth modifiers, basal conditions – strain 972, OD600, 24 h, no modulator, primary screen (AID 1090);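 note: basal condition with compound alone and no growth modifier present; test concentration not given here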
Settings: S. pombe 972 growth, called active from +8 up or from −8 down
Active and inactive are the calls of the source.
Write down one outcome, taken from True = active, False = inactive

Please indicate how the test categorized `COc1ccc([Si](C)(C)[C@H]2[C@H](CCO)O[C@@]3(C(=O)N(Cc4ccc(NC(=O)[C@H](C)O)cc4)c4ccccc43)[C@@H]2C)cc1` .
False

Please indicate how the test categorized `COc1ccc([Si](C)(C)[C@H]2[C@H](CCO)O[C@@]3(C(=O)N(Cc4cccc(N5C(=O)c6ccccc6Oc6ccccc65)c4)c4ccccc43)[C@@H]2C)cc1` .
False

Please indicate how the test categorized N#Cc1ccc(NN2C(C(O)C3CC=CCC3)C=CC3C(=O)N(c4ccccc4)C(=O)C32)cc1 (centres undefined) .
False

Please indicate how the test categorized `COCCOC(=O)N1C(=O)[C@@]2(c3cc(C#Cc4ccc(OC)cc4)ccc31)[C@H](c1ccc(OCCO)cc1)N1[C@H](c3ccccc3)[C@H](c3ccccc3)OC(=O)[C@H]1[C@@H]2C(=O)NC[C@H](O)c1ccccc1` .
False

Please indicate how the test categorized `COc1ccccc1CN1C(=O)c2ccccc2[C@](Cc2ccccc2I)(C(=O)NCC(C)C)[C@@H]1c1ccc(CO)cc1` .
False

Please indicate how the test categorized CC(=O)OCC1C2CC[C@H]3C(OCc4ccc(F)cc4C(F)(F)F)OC[C@]4(C)[C@H]3C2=C(CN4C(=O)OC(C)(C)C)[C@H](C)C1COC(C)=O (some centres undefined) .
False

Please indicate how the test categorized `C[N+](C)(C)CCCC[C@@H]1NC(=O)[C@H]2C[C@@H](C(=O)NCCCCCNC(=O)CS)[C@@H](c3cccc(OCCO)c3)N2C1=O` .
False

Please indicate how the test categorized `CC(C)NC(=O)[C@@H]1c2ccccc2C(=O)N(Cc2ccccc2C(F)(F)F)[C@H]1c1ccc(CO)cc1` .
False

Please indicate how the test categorized `CCCC[C@H]1C[C@@H]1[C@@H]1N(C(C)=O)[C@H](c2cccc(OC)c2)CC12CC2` .
True

Please indicate how the test categorized `CCCN1C(=O)[C@]2(CCC(=O)OC(C)(C)C)N=C(c3ccc(OCCCO)cc3)O[C@@H]2c2ccccc21` .
False

Please indicate how the test categorized `CC[C@@H]1C=C(C(=O)O)[C@H](c2ccc(OC)cc2)N1S(=O)(=O)c1ccc(C)cc1` .
False

Please indicate how the test categorized `O=C(NCc1ccccc1)[C@@H]1c2ccccc2C(=O)N(Cc2ccc(OC(F)(F)F)cc2)[C@H]1c1ccc(CO)cc1` .
False

Please indicate how the test categorized `COCCOC(=O)N1C(=O)[C@@]2(c3cc(C#CCC(C(=O)OC)C(=O)OC)ccc31)[C@H](c1ccc(O)cc1)N1[C@H](c3ccccc3)[C@H](c3ccccc3)OC(=O)[C@H]1[C@@H]2C(=O)Nc1nc2ccccc2s1` .
False

Please indicate how the test categorized `O=C1N(Cc2ccccc2)c2ccccc2C[C@@]12COC(c1ccc(OCCCO)cc1)=N2` .
False

====

Assay: plasmodial surface anion channel blockers, osmotic lysis – cell-based, P. falciparum Indochina, OD700, 2 h, primary screen (AID 1155);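 note: lysis reports solute entry through the parasite surface anion channel PSAC; channel blockers reduce lysis of infected cells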
Details: P. falciparum Indochina infected erythrocytes, called active from +8 up or from −8 down
Activity calls are given as the source filed them.
Write down one outcome, taken from TRUE (active), FALSE (inactive)

Please indicate how the test categorized C=CCC(OC(C)=O)[C@@H]1[C@@H](N(Cc2cccc3ccccc23)C(=O)Cc2ccc(OC)cc2)c2cc(OCCCO)ccc2N1C(=O)Cc1ccc2ccccc2c1 (some centres not stated) .
FALSE

Please indicate how the test categorized `O=C1[C@H]2C=C(I)[C@H](C[C@@H]2OCCCCCCO)[C@@]12CO2` .
FALSE

Please indicate how the test categorized `NC(=O)NCC#Cc1ccc2c(c1)[C@]1(C(=O)N2)[C@H](c2ccc(OCCO)cc2)N2[C@H](c3ccccc3)[C@H](c3ccccc3)OC(=O)[C@H]2[C@@H]1C(=O)O` .
FALSE

Please indicate how the test categorized O=C1C2C=CC(C(O)c3c(F)cccc3Cl)N(Nc3ccc([N+](=O)[O-])cc3)C2C(=O)N1c1ccccc1 (configuration not stated) .
TRUE

Please indicate how the test categorized `COC(=O)C[C@H]1O[C@@]2(C[C@@H]1[Si](C)(C)C)C(=O)N(C)c1ccccc12` .
FALSE

Please indicate how the test categorized `CN(C)CCCCNC(=O)[C@H]1C[C@H]2C(=O)N3CCC[C@H]3C(=O)N2[C@H]1c1cccc(OCCO)c1` .
FALSE

Please indicate how the test categorized `C=C(COC)C(=O)CC[C@@H](OC(=O)c1ccccc1-c1ccccc1C(=O)O)c1ccc(OCCO)cc1` .
FALSE
